test system: human organs; experiment: Absorbed doses of radiation, estimates for human organs (OLINDA software); settings: human organ: Liver
Below, each of the molecules is paired with its reported radiation dose estimate, Liver value.
Use mSv/MBq as the unit, but write only the number.

Measured radiation dose estimate, Liver of O=C([O-])CN1CCN(CC(=O)[O-])CCN(CC(=O)N2CCO[C@]3(CC[C@H](C(=O)N[C@@H](Cc4ccc5ccccc5c4)C(=O)NCCCC[C@H](NC(=O)N[C@@H](CCC(=O)O)C(=O)O)C(=O)O)CC3)C2)CCN(CC(=O)[O-])CC1.[177Lu+3] [^177Lu-v] : 7.43E−02

Measured radiation dose estimate, Liver of O=C([O-])CN1CCN(CC(=O)[O-])CCN(CC(=O)N2CCO[C@]3(CC[C@H](C(=O)N[C@@H](Cc4ccc5ccccc5c4)C(=O)NCCCC[C@H](NC(=O)N[C@@H](CCC(=O)O)C(=O)O)C(=O)O)CC3)C2)CCN(CC(=O)[O-])CC1.[68Ga+3] [^68Ga-v] : 2.50E−02

Measured radiation dose estimate, Liver of O=C([O-])CN1CCN(CC(=O)[O-])CCN(CC(=O)NCC2CCC(C(=O)N[C@@H](Cc3ccc4ccccc4c3)C(=O)NCCCC[C@H](NC(=O)N[C@@H](CCC(=O)O)C(=O)O)C(=O)O)CC2)CCN(CC(=O)[O-])CC1.[68Ga+3] (stereo partly shown) [^68Ga-PSMA-617, reference compound] : 1.75E−01

# evaluate next
Measured radiation dose estimate, Liver of O=C([O-])CN1CCN(CC(=O)[O-])CCN(CC(=O)NCC2CCC(C(=O)N[C@@H](Cc3ccc4ccccc4c3)C(=O)NCCCC[C@H](NC(=O)N[C@@H](CCC(=O)O)C(=O)O)C(=O)O)CC2)CCN(CC(=O)[O-])CC1.[177Lu+3] (stereo partly shown) [^177Lu-PSMA-617, reference compound] : 3.15E−02

* * *

system: human organs; assay: Absorbed doses of radiation, estimates for human organs (OLINDA software); settings: human organ: Left colon
observable: radiation dose estimate, Left colon (mSv/MBq)
Use mSv/MBq as the unit, but write only the number.

Measured radiation dose estimate, Left colon of O=C([O-])CN1CCN(CC(=O)[O-])CCN(CC(=O)N2CCO[C@]3(CC[C@H](C(=O)N[C@@H](Cc4ccc5ccccc5c4)C(=O)NCCCC[C@H](NC(=O)N[C@@H](CCC(=O)O)C(=O)O)C(=O)O)CC3)C2)CCN(CC(=O)[O-])CC1.[68Ga+3] [^68Ga-v] : 6.87E−03

New cases:
Measured radiation dose estimate, Left colon of O=C([O-])CN1CCN(CC(=O)[O-])CCN(CC(=O)NCC2CCC(C(=O)N[C@@H](Cc3ccc4ccccc4c3)C(=O)NCCCC[C@H](NC(=O)N[C@@H](CCC(=O)O)C(=O)O)C(=O)O)CC2)CCN(CC(=O)[O-])CC1.[68Ga+3] (stereo partly shown) [^68Ga-PSMA-617, reference compound] : 1.63E−02

Measured radiation dose estimate, Left colon of O=C([O-])CN1CCN(CC(=O)[O-])CCN(CC(=O)NCC2CCC(C(=O)N[C@@H](Cc3ccc4ccccc4c3)C(=O)NCCCC[C@H](NC(=O)N[C@@H](CCC(=O)O)C(=O)O)C(=O)O)CC2)CCN(CC(=O)[O-])CC1.[177Lu+3] (stereo partly shown) [^177Lu-PSMA-617, reference compound] : 4.60E−03

Measured radiation dose estimate, Left colon of O=C([O-])CN1CCN(CC(=O)[O-])CCN(CC(=O)N2CCO[C@]3(CC[C@H](C(=O)N[C@@H](Cc4ccc5ccccc5c4)C(=O)NCCCC[C@H](NC(=O)N[C@@H](CCC(=O)O)C(=O)O)C(=O)O)CC3)C2)CCN(CC(=O)[O-])CC1.[177Lu+3] [^177Lu-v] : 4.81E−03

* * *

target: rhPSMA (Homo sapiens (Human)); assay: Tests for inhibitory activity against PSMA (Test Example 1); assay type: biochemical; settings: rhPSMA 50 ng/well, substrate N-Acetyl-Asp-Glu, 37° C. 1 h
Sequence (Q04609 44-750): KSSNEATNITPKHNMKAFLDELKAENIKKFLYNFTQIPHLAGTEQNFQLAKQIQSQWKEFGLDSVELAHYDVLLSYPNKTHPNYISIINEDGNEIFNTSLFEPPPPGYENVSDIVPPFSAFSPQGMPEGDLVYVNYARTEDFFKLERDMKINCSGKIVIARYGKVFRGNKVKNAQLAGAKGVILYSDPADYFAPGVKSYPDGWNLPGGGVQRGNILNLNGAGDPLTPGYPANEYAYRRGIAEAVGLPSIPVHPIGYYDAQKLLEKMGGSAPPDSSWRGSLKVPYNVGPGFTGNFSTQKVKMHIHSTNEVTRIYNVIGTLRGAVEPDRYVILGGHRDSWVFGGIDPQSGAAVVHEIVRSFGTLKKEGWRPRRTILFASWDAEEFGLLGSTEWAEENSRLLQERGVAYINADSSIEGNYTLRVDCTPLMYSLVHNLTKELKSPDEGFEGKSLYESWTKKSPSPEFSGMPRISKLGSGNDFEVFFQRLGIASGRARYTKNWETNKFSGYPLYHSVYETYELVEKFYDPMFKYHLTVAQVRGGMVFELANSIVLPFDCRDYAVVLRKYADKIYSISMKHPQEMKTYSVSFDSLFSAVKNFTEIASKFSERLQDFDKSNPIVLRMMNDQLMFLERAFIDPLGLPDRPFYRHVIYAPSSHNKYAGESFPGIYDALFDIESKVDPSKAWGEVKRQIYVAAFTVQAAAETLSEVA
observable: IC50 (nM)
Use nM as the unit, but write only the number.

Here's what some known entries look like.
Lab note: molecule `O=C(O)CC[C@H](NC(=O)N[C@@H](CCCCNC(=O)[C@H](Cc1ccc2ccccc2c1)NC(=O)N1CCC(CNC(=O)CN2CCN(CC(=O)O)CCN(CC(=O)O)CCN(CC(=O)O)CC2)CC1)C(=O)O)C(=O)O` tested on rhPSMA (Homo sapiens (Human)); recorded IC50 was 4.13

Lab note: molecule `NCc1cnn([C@@H](Cc2ccccc2)C(=O)NCCCC[C@H](NC(=O)N[C@@H](CCC(=O)O)C(=O)O)C(=O)O)c1` tested on rhPSMA (Homo sapiens (Human)); recorded IC50 was 143

Lab note: molecule O=C(O)CC[C@H](NC(=O)N[C@@H](CCCCNC(=O)[C@H](Cc1ccc2ccccc2c1)NC(=O)C1CC12CCNCC2)C(=O)O)C(=O)O (stereo partly shown) tested on rhPSMA (Homo sapiens (Human)); recorded IC50 was 2.4

Lab note: molecule `N[C@@H](Cc1ccncc1)C(=O)NCCCC[C@H](NC(=O)N[C@@H](CCC(=O)O)C(=O)O)C(=O)O` tested on rhPSMA (Homo sapiens (Human)); recorded IC50 was 178

Lab note: molecule O=C(O)CC[C@H](NC(=O)N[C@@H](CCCCNC(=O)[C@H](Cc1ccc2ccccc2c1)NC(=O)[C@H]1CC[C@H](CNC(=O)CN2CCN(CC(=O)O)CCN(CC(=O)O)CCN(CC(=O)O)CC2)CC1)C(=O)O)C(=O)O [PSMA-617, reference compound] tested on rhPSMA (Homo sapiens (Human)); recorded IC50 was 2.36

New cases:
Lab note: molecule O=C(O)CC[C@H](NC(=O)N[C@@H](CCCCNC(=O)[C@H](Cc1ccc2ccccc2c1)NC(=O)[C@H]1CC[C@@]2(CC1)CN(C(=O)CN1CCN(CC(=O)O)CCN(CC(=O)O)CCN(CC(=O)O)CC1)CCO2)C(=O)O)C(=O)O [drawing 156] tested on rhPSMA (Homo sapiens (Human)); recorded IC50 was 1.52

Lab note: molecule `NCc1ccc(C(=O)Nc2cccc(C(=O)NCCCC[C@H](NC(=O)N[C@@H](CCC(=O)O)C(=O)O)C(=O)O)n2)cc1` tested on rhPSMA (Homo sapiens (Human)); recorded IC50 was 2.42

* * *

Below, each of the compounds is paired with its reported radiation dose estimate, Thymus value.
test system: human organs; test: Absorbed doses of radiation, estimates for human organs (OLINDA software); conditions: human organ: Thymus
Use mSv/MBq as the unit, but write only the number.

Here's what some known entries look like.
Measured radiation dose estimate, Thymus of O=C([O-])CN1CCN(CC(=O)[O-])CCN(CC(=O)N2CCO[C@]3(CC[C@H](C(=O)N[C@@H](Cc4ccc5ccccc5c4)C(=O)NCCCC[C@H](NC(=O)N[C@@H](CCC(=O)O)C(=O)O)C(=O)O)CC3)C2)CCN(CC(=O)[O-])CC1.[177Lu+3] [^177Lu-v] : 2.83E−03

Measured radiation dose estimate, Thymus of O=C([O-])CN1CCN(CC(=O)[O-])CCN(CC(=O)N2CCO[C@]3(CC[C@H](C(=O)N[C@@H](Cc4ccc5ccccc5c4)C(=O)NCCCC[C@H](NC(=O)N[C@@H](CCC(=O)O)C(=O)O)C(=O)O)CC3)C2)CCN(CC(=O)[O-])CC1.[68Ga+3] [^68Ga-v] : 1.99E−03

New cases:
Measured radiation dose estimate, Thymus of O=C([O-])CN1CCN(CC(=O)[O-])CCN(CC(=O)NCC2CCC(C(=O)N[C@@H](Cc3ccc4ccccc4c3)C(=O)NCCCC[C@H](NC(=O)N[C@@H](CCC(=O)O)C(=O)O)C(=O)O)CC2)CCN(CC(=O)[O-])CC1.[177Lu+3] (stereo partly shown) [^177Lu-PSMA-617, reference compound] : 2.04E−03

Measured radiation dose estimate, Thymus of O=C([O-])CN1CCN(CC(=O)[O-])CCN(CC(=O)NCC2CCC(C(=O)N[C@@H](Cc3ccc4ccccc4c3)C(=O)NCCCC[C@H](NC(=O)N[C@@H](CCC(=O)O)C(=O)O)C(=O)O)CC2)CCN(CC(=O)[O-])CC1.[68Ga+3] (stereo partly shown) [^68Ga-PSMA-617, reference compound] : 1.16E−02

* * *

system: human organs; assay: Absorbed doses of radiation, estimates for human organs (OLINDA software); details: human organ: Pancreas
Below, each of the molecules is paired with its reported radiation dose estimate, Pancreas value.

Measured radiation dose estimate, Pancreas of O=C([O-])CN1CCN(CC(=O)[O-])CCN(CC(=O)N2CCO[C@]3(CC[C@H](C(=O)N[C@@H](Cc4ccc5ccccc5c4)C(=O)NCCCC[C@H](NC(=O)N[C@@H](CCC(=O)O)C(=O)O)C(=O)O)CC3)C2)CCN(CC(=O)[O-])CC1.[68Ga+3] [^68Ga-v] : 9.51E−03 mSv/MBq

New cases:
Measured radiation dose estimate, Pancreas of O=C([O-])CN1CCN(CC(=O)[O-])CCN(CC(=O)NCC2CCC(C(=O)N[C@@H](Cc3ccc4ccccc4c3)C(=O)NCCCC[C@H](NC(=O)N[C@@H](CCC(=O)O)C(=O)O)C(=O)O)CC2)CCN(CC(=O)[O-])CC1.[177Lu+3] (stereo partly shown) [^177Lu-PSMA-617, reference compound] : 4.36E−03 mSv/MBq

Measured radiation dose estimate, Pancreas of O=C([O-])CN1CCN(CC(=O)[O-])CCN(CC(=O)NCC2CCC(C(=O)N[C@@H](Cc3ccc4ccccc4c3)C(=O)NCCCC[C@H](NC(=O)N[C@@H](CCC(=O)O)C(=O)O)C(=O)O)CC2)CCN(CC(=O)[O-])CC1.[68Ga+3] (stereo partly shown) [^68Ga-PSMA-617, reference compound] : 1.86E−02 mSv/MBq

Measured radiation dose estimate, Pancreas of O=C([O-])CN1CCN(CC(=O)[O-])CCN(CC(=O)N2CCO[C@]3(CC[C@H](C(=O)N[C@@H](Cc4ccc5ccccc5c4)C(=O)NCCCC[C@H](NC(=O)N[C@@H](CCC(=O)O)C(=O)O)C(=O)O)CC3)C2)CCN(CC(=O)[O-])CC1.[177Lu+3] [^177Lu-v] : 5.14E−03 mSv/MBq
